Source listed as ChEMBL document CHEMBL2321753.

List of Drug uptake values.
Tested on: Lung
Assay: Biodistribution in ddY mouse lung at 0.1 to 0.4 uCi, iv after 2 mins by gamma counting
Type: ADME, organism-based
Conditions: in vivo
recorded metric: Drug uptake (% ID/g)

{"compound": "COc1ccc2nc3cc([125I])ccc3c(OC)c2c1", "target desc": "Lung", "recorded value": 5.95}
{"compound": "CNc1c2ccc([125I])cc2nc2ccc(OC)cc12", "target desc": "Lung", "recorded value": 15.8}
{"compound": "COc1c2ccc([125I])cc2nc2ccc(N(C)C)cc12", "target desc": "Lung", "recorded value": 7.17}
{"compound": "COc1ccc2nc3cc([125I])ccc3c(N(C)C)c2c1", "target desc": "Lung", "recorded value": 79.34}
{"compound": "CCN(CC)CCCC(C)Nc1c2ccc([125I])cc2nc2ccc(OC)cc12 (stereo unspecified)", "target desc": "Lung", "recorded value": 73.08}
{"compound": "COc1ccc2nc3cc([125I])ccc3c(N)c2c1", "target desc": "Lung", "recorded value": 9.91}

====

Test system: Brain
Experiment: Biodistribution in ddY mouse brain at 0.1 to 0.4 uCi, iv after 30 mins by gamma counting
Format: ADME, organism-based
Conditions: in vivo, 0.5 h

{"compound": "CCN(CC)CCCC(C)Nc1c2ccc([125I])cc2nc2ccc(OC)cc12 (stereo unspecified)", "target desc": "Brain", "Drug uptake, % ID/g": 0.24}
{"compound": "COc1ccc2nc3cc([125I])ccc3c(N(C)C)c2c1", "target desc": "Brain", "Drug uptake, % ID/g": 0.28}
{"compound": "COc1ccc2nc3cc([125I])ccc3c(OC)c2c1", "target desc": "Brain", "Drug uptake, % ID/g": 0.82}
{"compound": "CNc1c2ccc([125I])cc2nc2ccc(OC)cc12", "target desc": "Brain", "Drug uptake, % ID/g": 0.95}
{"compound": "COc1ccc2nc3cc([125I])ccc3c(N)c2c1", "target desc": "Brain", "Drug uptake, % ID/g": 1.27}
{"compound": "COc1c2ccc([125I])cc2nc2ccc(N(C)C)cc12", "target desc": "Brain", "Drug uptake, % ID/g": 1.6}

====

List of Drug uptake values.
System: Heart
Experiment: Biodistribution in ddY mouse heart at 0.1 to 0.4 uCi, iv after 30 mins by gamma counting
Assay type: ADME, organism-based
Conditions: in vivo, 0.5 h

{"compound": "CNc1c2ccc([125I])cc2nc2ccc(OC)cc12", "target desc": "Heart", "Drug uptake, % ID/g": 1.46}
{"compound": "COc1c2ccc([125I])cc2nc2ccc(N(C)C)cc12", "target desc": "Heart", "Drug uptake, % ID/g": 4.09}
{"compound": "COc1ccc2nc3cc([125I])ccc3c(OC)c2c1", "target desc": "Heart", "Drug uptake, % ID/g": 1.59}
{"compound": "CCN(CC)CCCC(C)Nc1c2ccc([125I])cc2nc2ccc(OC)cc12 (stereo unspecified)", "target desc": "Heart", "Drug uptake, % ID/g": 7}
{"compound": "COc1ccc2nc3cc([125I])ccc3c(N(C)C)c2c1", "target desc": "Heart", "Drug uptake, % ID/g": 9.08}
{"compound": "COc1ccc2nc3cc([125I])ccc3c(N)c2c1", "target desc": "Heart", "Drug uptake, % ID/g": 2.26}

====

System: Kidney
Experiment: Biodistribution in ddY mouse kidney at 0.1 to 0.4 uCi, iv after 60 mins by gamma counting
Type: ADME, organism-based
Conditions: in vivo, 1 h

{"compound": "COc1c2ccc([125I])cc2nc2ccc(N(C)C)cc12", "measure unit": "% ID/g", "Drug uptake": 4.81}
{"compound": "CCN(CC)CCCC(C)Nc1c2ccc([125I])cc2nc2ccc(OC)cc12 (stereo unspecified)", "measure unit": "% ID/g", "Drug uptake": 12.19}
{"compound": "COc1ccc2nc3cc([125I])ccc3c(OC)c2c1", "measure unit": "% ID/g", "Drug uptake": 2.77}
{"compound": "COc1ccc2nc3cc([125I])ccc3c(N)c2c1", "measure unit": "% ID/g", "Drug uptake": 3.58}
{"compound": "CNc1c2ccc([125I])cc2nc2ccc(OC)cc12", "measure unit": "% ID/g", "Drug uptake": 6}
{"compound": "COc1ccc2nc3cc([125I])ccc3c(N(C)C)c2c1", "measure unit": "% ID/g", "Drug uptake": 16.34}

====

System: Brain
Experiment: Biodistribution in ddY mouse brain at 0.1 to 0.4 uCi, iv after 2 mins by gamma counting
Assay type: ADME, organism-based
Conditions: in vivo
List of Drug uptake values.

{"molecule": "COc1ccc2nc3cc([125I])ccc3c(OC)c2c1", "Drug uptake": "4.41 % ID/g"}
{"molecule": "COc1ccc2nc3cc([125I])ccc3c(N)c2c1", "Drug uptake": "1.35 % ID/g"}
{"molecule": "CCN(CC)CCCC(C)Nc1c2ccc([125I])cc2nc2ccc(OC)cc12 (stereo unspecified)", "Drug uptake": "0.32 % ID/g"}
{"molecule": "COc1c2ccc([125I])cc2nc2ccc(N(C)C)cc12", "Drug uptake": "2.09 % ID/g"}
{"molecule": "COc1ccc2nc3cc([125I])ccc3c(N(C)C)c2c1", "Drug uptake": "0.33 % ID/g"}
{"molecule": "CNc1c2ccc([125I])cc2nc2ccc(OC)cc12", "Drug uptake": "2.97 % ID/g"}

====

System: Liver
Test: Biodistribution in ddY mouse liver at 0.1 to 0.4 uCi, iv after 60 mins by gamma counting
Type: ADME, organism-based
Conditions: in vivo, 1 h

{"compound": "COc1ccc2nc3cc([125I])ccc3c(OC)c2c1", "Drug uptake": "5.8 % ID/g"}
{"compound": "CCN(CC)CCCC(C)Nc1c2ccc([125I])cc2nc2ccc(OC)cc12 (stereo unspecified)", "Drug uptake": "11.61 % ID/g"}
{"compound": "COc1ccc2nc3cc([125I])ccc3c(N)c2c1", "Drug uptake": "2.84 % ID/g"}
{"compound": "CNc1c2ccc([125I])cc2nc2ccc(OC)cc12", "Drug uptake": "7.52 % ID/g"}
{"compound": "COc1c2ccc([125I])cc2nc2ccc(N(C)C)cc12", "Drug uptake": "10.79 % ID/g"}
{"compound": "COc1ccc2nc3cc([125I])ccc3c(N(C)C)c2c1", "Drug uptake": "12.55 % ID/g"}

====

Test system: Spleen
Test: Biodistribution in ddY mouse spleen at 0.1 to 0.4 uCi, iv after 30 mins by gamma counting
Type: ADME, organism-based
Details: in vivo, 0.5 h

{"molecule": "COc1ccc2nc3cc([125I])ccc3c(N)c2c1", "Drug uptake [% ID/g]": 10.6}
{"molecule": "COc1ccc2nc3cc([125I])ccc3c(N(C)C)c2c1", "Drug uptake [% ID/g]": 14.49}
{"molecule": "COc1ccc2nc3cc([125I])ccc3c(OC)c2c1", "Drug uptake [% ID/g]": 1.87}
{"molecule": "CCN(CC)CCCC(C)Nc1c2ccc([125I])cc2nc2ccc(OC)cc12 (stereo unspecified)", "Drug uptake [% ID/g]": 10.88}
{"molecule": "CNc1c2ccc([125I])cc2nc2ccc(OC)cc12", "Drug uptake [% ID/g]": 6.02}
{"molecule": "COc1c2ccc([125I])cc2nc2ccc(N(C)C)cc12", "Drug uptake [% ID/g]": 5.4}

====

List of Drug uptake values.
System: Lung
Test: Biodistribution in ddY mouse lung at 0.1 to 0.4 uCi, iv after 10 mins by gamma counting
Assay type: ADME, organism-based
Conditions: in vivo
recorded metric: Drug uptake

{"compound": "CCN(CC)CCCC(C)Nc1c2ccc([125I])cc2nc2ccc(OC)cc12 (stereo unspecified)", "recorded value": "59.55 % ID/g"}
{"compound": "COc1c2ccc([125I])cc2nc2ccc(N(C)C)cc12", "recorded value": "6.66 % ID/g"}
{"compound": "COc1ccc2nc3cc([125I])ccc3c(OC)c2c1", "recorded value": "3.37 % ID/g"}
{"compound": "COc1ccc2nc3cc([125I])ccc3c(N(C)C)c2c1", "recorded value": "57.02 % ID/g"}
{"compound": "CNc1c2ccc([125I])cc2nc2ccc(OC)cc12", "recorded value": "5.62 % ID/g"}
{"compound": "COc1ccc2nc3cc([125I])ccc3c(N)c2c1", "recorded value": "14.29 % ID/g"}

====

Tested on: Pancreas
Assay: Biodistribution in ddY mouse pancreas at 0.1 to 0.4 uCi, iv after 60 mins by gamma counting
Assay type: ADME, organism-based
Details: in vivo, 1 h
If the reported Drug uptake equals or exceeds 1 % ID/g, assign MET. If not, assign NOT MET.

{"molecule": "COc1c2ccc([125I])cc2nc2ccc(N(C)C)cc12", "group label": "MET"}
{"molecule": "COc1ccc2nc3cc([125I])ccc3c(OC)c2c1", "group label": "MET"}
{"molecule": "COc1ccc2nc3cc([125I])ccc3c(N(C)C)c2c1", "group label": "MET"}
{"molecule": "COc1ccc2nc3cc([125I])ccc3c(N)c2c1", "group label": "NOT MET"}
{"molecule": "CCN(CC)CCCC(C)Nc1c2ccc([125I])cc2nc2ccc(OC)cc12 (stereo unspecified)", "group label": "MET"}
{"molecule": "CNc1c2ccc([125I])cc2nc2ccc(OC)cc12", "group label": "MET"}
